Molecular target: Rhodesain (Trypanosoma brucei rhodesiense)
Sequence (Q95PM0 whole entry): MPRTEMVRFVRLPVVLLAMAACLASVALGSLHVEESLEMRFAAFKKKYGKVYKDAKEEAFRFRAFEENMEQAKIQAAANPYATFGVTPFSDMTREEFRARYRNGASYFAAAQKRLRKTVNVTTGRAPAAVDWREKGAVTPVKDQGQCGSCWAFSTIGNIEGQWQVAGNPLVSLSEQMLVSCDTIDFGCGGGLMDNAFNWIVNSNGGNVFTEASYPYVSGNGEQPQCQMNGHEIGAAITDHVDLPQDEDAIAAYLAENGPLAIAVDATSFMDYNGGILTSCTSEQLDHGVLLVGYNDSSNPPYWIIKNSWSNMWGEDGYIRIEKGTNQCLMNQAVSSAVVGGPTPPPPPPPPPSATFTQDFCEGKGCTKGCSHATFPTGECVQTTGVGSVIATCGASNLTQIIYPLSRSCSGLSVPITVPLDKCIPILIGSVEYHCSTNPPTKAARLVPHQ
Assay: Inhibition of recombinant Trypanosoma brucei rhodesain using Z-FR-AMC as substrate by fluorimetric analysis relative to control
ENDPOINT: pIC50
Note on units: pIC50 is unitless, being -log10 of a concentration expressed in mol/L.

O=C1C=C(Nc2ccc(S(=O)(=O)Nc3ccccn3)cc2)C(=O)c2ccccc21 = 4.52

Tell me measured pIC50 for CC(C)=CCC1=C(O)c2ccccc2/C(=N/NC(N)=S)C1=O please.
4.18

Tell me measured pIC50 for CC(C)=CCC1=C(O)c2ccccc2/C(=N/NC(=O)c2ccncc2)C1=O please.
4.54

---

Biological target: Rhodesain (Trypanosoma brucei rhodesiense) (UniProt Q95PM0)
Assay: Inhibition of recombinant Trypanosoma brucei rhodesain at 100 uM using Z-FR-AMC as substrate by fluorimetric analysis relative to control
ENDPOINT: inhibition (%)
Numeric answer only, unit % assumed.

Please review the following examples before continuing.
O=C1C=C(Nc2ccc(S(=O)(=O)Nc3ccccn3)cc2)C(=O)c2ccccc21 = 48
CC(C)=CCC1=C(O)c2ccccc2/C(=N/NC(=O)c2ccncc2)C1=O = 73
CC(C)=CCC1=C(O)c2ccccc2/C(=N/NC(N)=S)C1=O = 79
O=C1C=C(O)C(=O)c2ccccc21 = 27

Could you now look at the following compound, please?
Tell me measured inhibition for CC(C)=CCC1=C(O)C(=O)c2ccccc2C1=O please.
18

// provenance: ChEMBL document CHEMBL4811271
